Test system: HepG2 human liver cancer (hepatocellular carcinoma) cells
Assay: cells
Assay type: cell-based
Settings: Homo sapiens, HepG2; read-out: doxorubicin EC50 for HepG2
metric: EC50

INSERT INTO assay_data (compound, tested_on, reading) VALUES
  ('COc1cccc2c1C(=O)c1c(O)c3c(c(O)c1C2=O)C[C@@](O)(C(=O)CO)C[C@@H]3O[C@H]1C[C@H](N)[C@H](O)[C@H](C)O1 [doxorubicin, reference compound]', 'HepG2 human liver cancer (hepatocellular carcinoma) cells', '0.19 µM');
